# assayedTarget: hGLP-1R (Homo sapiens, UniProt P43220)
# Sequence (P43220 24-463): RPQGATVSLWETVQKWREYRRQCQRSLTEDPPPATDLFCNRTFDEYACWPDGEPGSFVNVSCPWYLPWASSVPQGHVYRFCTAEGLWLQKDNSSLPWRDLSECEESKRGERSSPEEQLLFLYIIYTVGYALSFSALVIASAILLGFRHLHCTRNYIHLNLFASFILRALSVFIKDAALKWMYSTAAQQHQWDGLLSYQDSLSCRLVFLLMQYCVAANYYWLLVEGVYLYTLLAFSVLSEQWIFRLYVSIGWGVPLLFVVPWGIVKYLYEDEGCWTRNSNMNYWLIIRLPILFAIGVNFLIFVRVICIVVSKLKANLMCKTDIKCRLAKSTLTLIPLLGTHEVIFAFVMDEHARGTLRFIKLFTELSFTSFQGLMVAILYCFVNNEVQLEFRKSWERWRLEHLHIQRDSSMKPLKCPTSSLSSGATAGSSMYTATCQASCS
# measurementDescription: cell-based or functional assay
Answer each item with its documented cAMP Rel EC50 (in the presence of 1% HSA).
Answers are plain numbers, in nM.

// solved cases for cAMP Rel EC50 (in the presence of 1% HSA) follow
INSERT INTO measurements (binder, observed) VALUES
  ('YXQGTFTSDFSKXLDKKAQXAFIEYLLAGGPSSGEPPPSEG (synthetic construct; SITE 2: note = 2-Aminoisobutyric Acid; SITE 13: note = alpha-methyl-leucine; SITE 17: note = Lysine is chemically modified through conjugation of the epsilon-amino group of the Lysine side chain with (2-[2-(2-Amino-ethoxy)-ethoxy]-acetyl)-(gamma-Glu)-CO-(CH2) 18-CO2H; SITE 20: n) [Example 1]', 524),
  ('YXQGTFTSDFSXXLDKKAQXAFIEWLLEGGHSSGAPPPSGH (Aib, Orn, αMeL; K acylated AEEA-γGlu-C18 diacid; C-terminal amide; synthetic construct; SITE 2: note = 2-Aminoisobutyric Acid; SITE 12: note = L-ornithine; SITE 13: note = alpha-methyl-leucine; SITE 17: note = Lysine is chemically modified through conjugation of the epsilon-amino group of the Lysine side chain with (2-[2-(2-Amino-ethoxy)-ethoxy]-acetyl)-(gamma-Glu)) [Example 269]', 428);

// cAMP Rel EC50 (in the presence of 1% HSA) lookup, key: YXQGTFTSDXXQXLDXKAQXQFIEXLIAXGPSSGEPPPSGGGE (non-natural residues; lipidated Lys γGlu-C18 diacid; C-term amide; synthetic construct; SITE 2: note = 2-Aminoisobutyric Acid; SITE 10: note = 3-(4-Pyridyl)-L-alanine; SITE 11: note = alpha-methyl-L-serine; SITE 13: note = alpha-methyl-leucine; SITE 16: note = L-ornithine; SITE 17: note = Lysine is chemically modified through conjugation of the epsilon-amino group) [Example 1182] 80.4
